Origin of values: ChEMBL document CHEMBL4364268

Assay: Aqueous solubility of compound at 50 mg after 1 hr by HPLC analysis
Assay type: physicochemical
Details: water
MEASURED PROPERTY: solubility at 1 h (µg/mL)
# unit: µg/mL | format: bare number

What does the record list as solubility at 1 h for `Cc1ccc(C(C)C)cc1OC(=O)CCCC(=O)N[C@@H](Cc1c[nH]cn1)C(=O)O` ?
3330
